- subject.of.test: T1, Hsp27 alpha-crystallin domain (ACD, residues Q80–S176) (human, UniProt P04792 80-176)
- T1 construct: Human Hsp27 (HSPB1), alpha-crystallin domain, residues Q80–S176; Used 15N-labelled (observed in HSQC) and unlabelled; Vector was a gift of the Klevit laboratory; also called Hsp27 ACD
- procedure.summary: ITC; peptide (1 mM) titrated into a cell with Hsp27 proteins (100 µM); SEC buffer (50 mM sodium phosphate, 100 mM NaCl); 25 °C; one-site binding model
- protocol.conditions: both partners purified
parameter: Kd

INSERT INTO measurements (binder, recorded_result) VALUES
  ('EITIAVTHE (Human Hsp27 (HSPB1) IPV peptide in the His-containing context with the proline of IPV mutated to alanine; source: synthetic peptide, bought: Genescript) [Hsp27 IPV H peptide with the second X residue (Pro) of IXIXV mutated to alanine (EITIAVTHE)]', '~5 µM'),
  ('EITIPATHE (EITIPATHE. The paper numbers the peptide from E176, so printed Val181 (V of IPV) is UniProt V183. Peptide termini chemistry is not stated.) [Hsp27 IPV H peptide with Val181 mutated to alanine]', '> 25 µM'),
  ('EITIPVTHE (Human Hsp27 (HSPB1) IPV 9-mer with the penultimate phenylalanine swapped for histidine (the residue at this position in the motif of BAG3); also called His-containing IPV peptide; chimeric peptide; source: synthetic peptide, bought: Genescript) [Hsp27 IPV H peptide (EITIPVTHE)]', '11.5 µM'),
  ('EITIPVTFE (Human Hsp27 (HSPB1), C-terminal IPV (IXI) motif, 9-mer; source: synthetic peptide, bought: Genescript) [Hsp27 IPV peptide (native 9-mer EITIPVTFE)]', '> 25 µM'),
  ('EITAPVTHE (EITAPVTHE. The paper numbers the peptide from E176, so printed Ile179 (I of IPV) is UniProt I181. Peptide termini chemistry is not stated.) [Hsp27 IPV H peptide with Ile179 mutated to alanine]', '> 25 µM');

# credit: paper PMC6212398
